# System: HIV-1
# protocol-notes: in-vitro anti-HIV assay: inhibition of HIV-induced cytopathic effect in MT-4 cells (MTT)
# Format: cell-based
# condition-info: CD50/ED50, MT-4 cells
# Method: A rapid, sensitive and automated assay procedure was used for the in-vitro evaluation of anti-HIV agents. An […] T4-cell line, MT-4, which was previously shown Koyanagi et al., Int. […] The viability of both HIV- and mock-infected cells was assessed spectrophotometrically via the in-situ reduction of 3-(4,5-dimethylthiazol-2-yl)-2,5-diphenyltetrazolium bromide (MTT). […]
Short version: SI (selectivity index, ratio of CD50 to ED50) at least 500 is Satisfied, less is Not satisfied.

Illustrative cases are given below, each with its answer.
molecule	category
NC(=O)C(Nc1ccc[nH]c1=O)c1c(Cl)cccc1Cl (racemic)	Satisfied
CC(Nc1ncccc1[N+](=O)[O-])c1c(Cl)cccc1Cl (centres unmarked)	Not satisfied
CCn1nc(C)c([N+](=O)[O-])c1NC(C(N)=O)c1c(Cl)cccc1Cl (centres unmarked)	Not satisfied

Decide: is the reported value of SI (selectivity index, ratio of CD50 to ED50) for NC(=O)C(Nc1ncccc1[N+](=O)[O-])c1c(Cl)cccc1Cl (racemic) equal to or greater than 500? Satisfied

---

# protocol-notes: in vitro
# Type: cell-based
# condition-info: human, mt-4 cells
Response field label: string, one of Yes (CC50 strictly below 30 µg/mL) or No.

Report whether reported CC50 is lower than 30 µg/mL (strictly) for NC(=O)C(Nc1ccc[nH]c1=O)c1c(Cl)cccc1Cl (racemic) No

Report whether reported CC50 is lower than 30 µg/mL (strictly) for CC(=O)c1cccnc1NC(C)c1c(Cl)cccc1Cl (racemic) No

Report whether reported CC50 is lower than 30 µg/mL (strictly) for CC(Nc1ncccc1[N+](=O)[O-])c1c(Cl)cccc1Cl (centres unmarked) Yes

---

Task for the reader: assign each of the following molecules its reported SI (selectivity index, ratio of CD50 to ED50).
# System: HIV-1
# protocol-notes: in-vitro anti-HIV assay: inhibition of HIV-induced cytopathic effect in MT-4 cells (MTT)
# Type: cell-based
# condition-info: CD50/ED50, MT-4 cells
Give bare numbers.

Report SI (selectivity index, ratio of CD50 to ED50) for each item below.
1. CC(=O)c1nccnc1NC(C(N)=O)c1c(Cl)cccc1Cl (stereo not shown)
2. CC(=O)c1cccnc1NC(C)c1c(Cl)cccc1Cl (racemic)
3. CC(=O)c1nccnc1NC(C)c1c(Cl)cccc1Cl (stereo not shown)
4. N#Cc1cccnc1NC(C(N)=O)c1c(Cl)cccc1Cl (stereo not shown)

[41.5, 463, 289, 243]

---

# protocol-notes: in vitro
# Format: cell-based
# condition-info: human, mt-4 cells
measure-name: CC50 (µg/mL)
Give bare numbers, in µg/mL.

Some solved cases for reference:
molecule	unit-of-measurement	numeric-result
N#Cc1cccnc1NC(C(N)=O)c1c(Cl)cccc1Cl (centres unmarked)	µg/mL	25.3
NC(=O)C(Nc1ncccc1[N+](=O)[O-])c1c(Cl)cccc1Cl (racemic)	µg/mL	35.8
CC(=O)c1nccnc1NC(C(N)=O)c1c(Cl)cccc1Cl (centres unmarked)	µg/mL	157
CC(=O)c1nccnc1NC(C)c1c(Cl)cccc1Cl (centres unmarked)	µg/mL	3.82

Attention now turns to another entry.
Provide CC50 value for the following molecule: CCn1nc(C)c([N+](=O)[O-])c1NC(C(N)=O)c1c(Cl)cccc1Cl (centres unmarked) 122
